- test_system: T1, full-length mature cynomolgus EMR2 (residues Q24-N816) with N-terminal aspartic acid/lysine epitope tag, … (cynomolgus monkey (Macaca fascicularis), UniProt A0A2K5WL23 21-816); further: test concentration or dose not given here
- T1 sequence: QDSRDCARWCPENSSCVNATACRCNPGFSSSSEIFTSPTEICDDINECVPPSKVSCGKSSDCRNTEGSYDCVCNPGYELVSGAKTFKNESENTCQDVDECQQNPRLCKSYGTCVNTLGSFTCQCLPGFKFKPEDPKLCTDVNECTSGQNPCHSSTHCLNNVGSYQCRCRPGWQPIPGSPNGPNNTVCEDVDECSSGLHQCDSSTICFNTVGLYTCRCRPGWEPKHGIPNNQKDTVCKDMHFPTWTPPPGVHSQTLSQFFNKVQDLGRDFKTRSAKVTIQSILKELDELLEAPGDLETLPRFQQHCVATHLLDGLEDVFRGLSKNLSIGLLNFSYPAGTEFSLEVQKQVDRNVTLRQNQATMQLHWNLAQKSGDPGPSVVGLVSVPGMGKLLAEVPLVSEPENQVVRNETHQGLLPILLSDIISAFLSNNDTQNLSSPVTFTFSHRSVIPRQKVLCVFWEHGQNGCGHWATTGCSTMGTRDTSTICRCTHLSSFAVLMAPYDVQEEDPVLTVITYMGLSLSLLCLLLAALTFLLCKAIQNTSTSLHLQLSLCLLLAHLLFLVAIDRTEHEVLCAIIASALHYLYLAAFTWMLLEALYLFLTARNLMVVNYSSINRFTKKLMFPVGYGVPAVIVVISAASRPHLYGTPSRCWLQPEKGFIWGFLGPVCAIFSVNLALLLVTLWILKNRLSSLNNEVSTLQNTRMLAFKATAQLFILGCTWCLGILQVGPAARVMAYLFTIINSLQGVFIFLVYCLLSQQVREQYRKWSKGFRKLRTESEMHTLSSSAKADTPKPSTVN
- experiment_notes: cell-based or functional assay
Please respond with reported % live, FAB-saporin killing assay for every item in the list.
Answers are plain numbers, in %.

SC93.256 (antibody, IgG2a, V domains shown, murine, IgG2a) VH: EVKLEESGGGLVQPGGSMKLSCAASGFTFSDAWMDWVRQSPEKGLEWVAEIRSKVNNHETYYAESVKGRFTISRDDSKSSVYLQMNSLRAEDTGIYYCIRNDYFDYWGQGTTLTVSS VL: DIQMTQTTSSLSASLGDRVTISCSASQGIRNYLNWYQQKPDGTVKLLIYYTSRLHSGVPSRFSGSGSGTDYSLTISNLEPEDIATYYCQQYGKLPYTFGGGTKLEIK : 12.3
SC93.267 (antibody, V domains shown, Murine hybridoma antibody with a kappa light chain; also called anti-hEMR2 antibody SC93.267) VH: EVQLQQSGPELVKPGASVRMSCKASGYTFTDYNMYWVKQSLGKSLEWIGYIYPNTGGATYNQKFKGKATLTVNKSSSTAFMELRSLTSEDSAVYYCGRGGLGPFAYWGQGTLVTVSA VL: DIQMTQSPSSLSASLGGKVTITCRASQDINKFISWYQHRPGKGPRLLIHYASTLQPGIPSRFSGSGSGRDYSFSISNLEPEDIATYYCLQYDNLWTFGGGTKLEIR : 27.8
SC93.255 (antibody, V domains shown, Murine hybridoma antibody with a kappa light chain) VH: QVQLQQSDAELVKPGSSVKISCKVSGFTFTDHTIHWMKQRPEQGLEWIGYIYPRDGNTKYNEKFTGKATLTADRSSSTAYMQLNSLTSEDSAVYFCASSNWAQWYFDIWGTGTTVTVSS VL: DIQMTQSSSYLSVSLGGRVTITCKASDHINNWLAWYQQKPGNAPRLLIFGATSLETGVPSRFSGSGSGKDYTLSITSLQSEDVGTYYCQQYWSIPYTFGGGTKLEIK : 9.63

Which % live, FAB-saporin killing assay value is on record for SC93.243 (antibody, IgG2b, V domains shown, murine, IgG2b) VH: QVQLQQSGAELMKPGASVKISCKATGYTFSSYWIEWVKQRPGHGLEWIGEILPGSGRTNYNERLKGKATFTADTSSNTAYMQLSSLTSEDSAVYYCARPYFYGSNFDFWGQGTTLTVSS VL: DIVMTQSHKFMSTSVGDRVSITCKASQDVGTAVAWYQQKPGQSPKLLIYWASTRHTGVPDRFTGSGSGTDFTLTISNVQSEDLADYFCQQYSSYHTFGGGTKLEIK ?
20.8
